Taken from PubChem BioAssay (NCI).

- System: MDA-MB-468 breast
- EXPERIMENTAL_DETAILS: NCI-60 one-dose screen, 48 h
- REPORTED_CONDITIONS: 10 µM unless noted
About 83,000 compounds went through this panel and 20% of them were active in at least one assay; those are over-represented in the sample as a whole. Active and inactive are the calls of the source. Rule for the calls: active = growth percent below 10; inactive = the rest.
Lab note: assign the record to one of Y = active, N = inactive

COMPOUND: NC(=S)N/N=C(/c1cccs1)C1CC1
ASSIGNED_CATEGORY: N
//
COMPOUND: CC(C)(C)CC(C)(C)Nc1c(-c2ccncc2)nc2cnccn12
ASSIGNED_CATEGORY: N
//
COMPOUND: CCc1ccc(NC(=O)N[C@@H](Cc2cc(F)cc(F)c2)C(=O)N[C@@H]2C(=O)N3C[C@H](O)C[C@H]3C(=O)N3CCOC[C@H]3C(=O)N[C@@H](C)C(=O)N3C[C@H](C)C[C@H]3C(=O)O[C@H]2C)cc1
ASSIGNED_CATEGORY: N
//
COMPOUND: NC1=NC(c2ccccc2)C2=C(N1)/C(=C/c1ccccc1)CCC2 (stereo not drawn)
ASSIGNED_CATEGORY: N
//
COMPOUND: COc1ccccc1/C=C/C(=O)c1nnn(-c2ccc(F)cc2)c1C
ASSIGNED_CATEGORY: N

Exercise: Can you look up the reported call for COc1cc(CNC(=O)CCCCC[P+](c2ccccc2)(c2ccccc2)c2ccccc2)c(OC)c2c1OCO2 for me?
Solution: Y

Exercise: Entry to check: Nc1cccc(S(=O)(=O)c2cccc(N)c2)c1
Solution: N

Exercise: Thanks! And O=C(CCCCC[P+](c1ccccc1)(c1ccccc1)c1ccccc1)NC(COC(=O)C(Cl)Cl)(COC(=O)C(Cl)Cl)COC(=O)C(Cl)Cl ?
Solution: N

----------
A collection of molecules and their measured growth
- System: MDA-MB-468 breast
- EXPERIMENTAL_DETAILS: NCI-60 one-dose screen, 48 h (100 = growth as untreated, 0 = no growth, -100 = all killed)
- REPORTED_CONDITIONS: 10 µM unless noted
The panel holds about 83,000 compounds, 20% with a hit somewhere; the sample as a whole holds those more often.
Give your result in % as a bare value.

Exercise: growth lookup needed for CCCCCOC(=O)c1ccc(NC(=O)CNCC(C)C)cc1 , thanks.
Solution: 102

Exercise: O=c1oc2c(Br)cc(Br)cc2cc1-c1cc(-c2ccc(-c3cc(-c4cc5cc(Br)cc(Br)c5oc4=O)nc(-c4cc5cc(Br)cc(Br)c5oc4=O)c3)cc2)cc(-c2cc3cc(Br)cc(Br)c3oc2=O)n1 ?
Solution: 117

Exercise: Continue with CC1=CC[C@@H]2CC[C@]3(C)[C@H](CC[C@@H]4[C@@]5(C)CCCNC(C)(C)[C@@H]5CC[C@]43C)[C@H]2[C@@H]1C
Solution: -47.2

Exercise: Please do the same for O=C1CCCCC1(c1ccccc1)c1ccccc1 as well.
Solution: 98.4

Exercise: How about O=C(O)C1C(c2ccccc2)c2ccccc2C(O)C1CO (stereo not drawn) ?
Solution: 117

Exercise: Consider next the molecule Cc1cc(Nc2nc(-c3cccnc3)nc3ccccc23)n[nH]1 in the same way.
Solution: 26.8

Exercise: Follow-up entry: O=C(Nc1cnn2ccc(N3CCC[C@@H]3c3cc(F)ccc3F)nc12)N1CC[C@H](O)C1
Solution: 88.7

Exercise: What about CC1(C)CC[C@]2(C(=O)O)CC[C@]3(C)C(=CC[C@@H]4[C@@]5(C)Cc6c([nH]c7ccccc67)C(C)(C)[C@@H]5CC[C@]43C)[C@@H]2C1 ?
Solution: 53.4
